- tested-target: T1, human PD-L2 (full-length, on cells) (human, UniProt Q9BQ51 20-273)
- T1 chain: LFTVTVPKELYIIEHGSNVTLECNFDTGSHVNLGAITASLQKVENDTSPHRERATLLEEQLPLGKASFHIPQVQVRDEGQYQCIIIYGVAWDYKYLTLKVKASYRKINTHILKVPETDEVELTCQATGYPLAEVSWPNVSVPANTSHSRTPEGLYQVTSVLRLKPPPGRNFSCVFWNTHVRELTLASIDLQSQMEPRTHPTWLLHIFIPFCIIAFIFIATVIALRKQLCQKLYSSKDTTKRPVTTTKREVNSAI
- assay-method-text: FACS binding to CHO-K1 cells expressing human PD-L2
observation-type: EC50 (nM)

1) 19C3-B3 (antibody, V domains shown, Both formats under this entry; also called 19C3-C3) VH: QVQLVESGGGVVQPGRSLRLSCAASGFAFSAYGMHWVRQAPGKGLEWVAISWYDGSNNYHADSVKGRFTISRDSSKNTLYLQMNSLRAEDTAVYYCAKSIGVARHYYYGMDVWGQGTTVTVSS VL: SYELTQPPSVSVSPGQTASITCSGEELGDKYACWYQQKPGQSPLLVIYQDSKRPSGIPERFSGSNSGNAATLTISGTQAMDEADYYCQAWDSITVIFGGGTKLTVLG	0.44
2) 10A9-D2 (antibody, V domains shown, Both formats under this entry) VH: QVQLQESGPGLVKPSETLSLTCAVSGGSISSSYWWSWVRQPPGKGLEWVGEVFHVGVTNYNPSLKSRVTISVDKSKNQFSLKLTSVTAADTAVYYCARVTGTTGYYHGLDVWGQGTTVTVFS VL: DIQMTQSPSSLSASVGDRVTITCRASQGIRNDLGWYQQKPGKVPKRLIYAASSLQSGIPSRFSGSGSGTEFTLTISSLQPEDFATYYCLQHNNYPRTFGQGTKVEIK	0.38
3) 7H5-C5 (antibody, V domains shown, Both formats under this entry) VH: QVQLVESGGGLVKPGGSLRLSCAASGFSLSDYYMSWTRQAPGRGLEWVSFISSSGSTIYYVDSVKGRFTISRDHAKNSLYLQINSLRAEDTAVYYCARAQWLPDFDYWGQGTLVTVSS VL: QSALTQPPSASGSPGQSVTISCTGTSSDVSGYNYVSWYQHHPDKAPKLLIYEVNKRPSGVPARFSGSKSGNTASLTVSGLQAEDEADYYCTSFADNNNVVFGGGTKLTVLG	1.6
4) 12A1-D4 (antibody, V domains shown, Both formats under this entry) VH: QVQLQESGPGLVKPSGTLSLTCAVSGGSISSNNWWSWVRQPPGKGLEWIGEIFHVGSTNYNPSLKSRVTISVDKSKNQFSLKLSSLTAADTAVYYCARMVGATGHYYGMDVWGQGTTVTVSS VL: DIQLTQSPSFLSASVGDRVTITCRASQGISSSLAWYQQKPGKAPKFLIYAASTLQSGVPSRFSGSGSGTEFTLTISSLQPEDFATYYCQQLNSYPKSWTFGQGTKVEIK	0.42
5) 19B3-B3 (antibody, V domains shown, Both formats under this entry) VH: QVQLVQSGAEVKKPGASVKVSCMASGYTFTNYAIHWVRQAPGQRLEWMGWINTGLGKPKYSQMFQDRVTITRDTSASTASMELSGLRSDDTAVYYCARVGWELYFDYWGQGTLVTVSS VL: DIQMTQSPSTLSASVGDRVTITCRASQSISSLLAWYQQKPGKAPKLLIYKASSLESGVPSRFSGSGSGTEFTLTISSLQPDDFATYFCQQYNSYWTFGQGTKVEIK	0.34
6) 11C11-H5 (antibody, V domains shown, Both formats under this entry) VH: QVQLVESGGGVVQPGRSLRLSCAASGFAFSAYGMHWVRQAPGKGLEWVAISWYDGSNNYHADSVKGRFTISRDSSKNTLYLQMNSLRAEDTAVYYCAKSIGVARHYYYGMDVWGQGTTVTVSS VL: SYELTQPPSVSVSPGQTASITCSGEELGDKYACWYQQKPGQSPVLVIYQDSKRPSGIPERFSGSNSGNAATLTISGTQAMDEADYYCQAWDSITVVFGGGTKLTVLG	0.81
7) 2C4-E4 (antibody, V domains shown, Both formats under this entry) VH: QVQLVQSGAEVKKPGASVKVSCKASGYTFTGYVMHWVRQAPGQRLEWMGWINADNGITKYSQKFQGRVTITRDTSASTAYMELTNLRSEDTAVYYCARATRGFGEFYFDYWGQGNLVTVSS VL: DIQMTQSPSTLSASVGDRVTITCRASQTISSWLAWYQQKPGKAPNLLIYKASSLESGVPSRFSGSGSGTEFTLTISSLQPDDFATYYCQQYYSYWTFGQGTKVEIK	0.45
